Test system: NIH-3T3 fibroblasts viability, Alamar Blue fluorescence, 48 h
Experiment: mammalian cell viability loss with fluconazole – Alamar Blue fluorescence, cytotoxicity control for reversing antifungal drug resistance, dose response (AID 434923)
Results filed as inconclusive are left out. Calls of active or inactive are those of the source.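 The calls were made as follows: active = fitted EC50 at most tenfold above the highest tested dose; inconclusive = flat fit with 30 to 70% signal loss, or poor fit; inactive = the rest.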
A correct response names exactly one class from YES = active, NO = inactive

Solved cases (3 shown):
COc1cc2c(cc1NC(=O)c1ccco1)CCCC2; NO
O=C(Oc1c(Cl)cc(Cl)c2cccnc12)c1cccs1; YES
O=C(Nc1nnc(-c2ccc3c(c2)CCCC3)o1)c1ccc(Cl)cc1Cl; NO

Asked: How did this test come out for CCCC(=O)NC(c1ccccc1)c1ccc2cccnc2c1O (centres undefined) ?
Given back: NO

Asked: Recorded test outcome, item O=C1/C(=C\c2ccccc2)CCc2c1[nH]c1ccccc21
Given back: NO

Asked: For CCOC(=O)c1c(-c2ccccc2Cl)cn2ccccc12 , what call appears in the results of this test?
Given back: NO

Asked: Per the assay record, what outcome was assigned to Clc1ccc2c(c1)C(c1cccs1)=NNC(c1cccnc1)=N2 ?
Given back: NO

Asked: Dear all, I need the recorded test outcome for CCCC(=O)NC(c1ccc(Cl)cc1)c1ccc2cccnc2c1O (centres undefined) , thank you.
Given back: YES

Asked: State the result this test recorded for O=C(NNC1=C(C(=O)C(F)(F)F)CCC1)c1ccc(Cl)cc1 .
Given back: NO

Asked: Hi, do you know how Cc1ccc(Nc2nc(N)c([N+](=O)[O-])c(N3CCC(C)CC3)n2)cc1C came out in this test?
Given back: NO

Asked: In this assay, the call recorded for c1ccc2c(c1)OCC(CNc1ncnc3sccc13)O2 (centres undefined) was what?
Given back: NO

Asked: How was O=C(Nc1nc(-c2ccccn2)cs1)c1ccc(Br)s1 classified in this test?
Given back: NO

Asked: // param item: O=C(Nc1nnc(SCc2ccc(Cl)cc2)s1)c1ccc2ccccc2n1 ; yields the recorded call
Given back: YES

Asked: Query: recorded result category for O=C(Nc1sc2c(c1C(=O)c1ccc(Cl)cc1)CCCC2)c1cccnc1 in this test
Given back: NO
